Experiment: Octanol-water partition coefficient, log P of the compound
Assay type: physicochemical
property_measured: logP

- Cc1ccc(C2Sc3cc(Cl)ccc3N=C3c4ccccc4C(c4ccccc4)C32)cc1 (stereo not given): 7.95
- COc1ccc(C2Sc3cc(Cl)ccc3N=C3c4ccccc4C(c4ccccc4)C32)cc1 (stereo not given): 7.23
- Clc1ccc(C2Sc3cc(Cl)ccc3N=C3c4ccccc4C(c4ccccc4)C32)cc1 (stereo not given): 8
- COc1ccc(C2Sc3ccccc3N=C3c4ccccc4C(c4ccccc4)C32)cc1 (stereo not given): 7.95
- c1ccc(C2Sc3ccccc3N=C3c4ccccc4C(c4ccccc4)C32)cc1 (stereo not given): 6.96

----------
Tested on: Staphylococcus aureus
Assay: Antibacterial activity against Staphylococcus aureus MTCC 7443 after 24 hrs by serial dilution method
Assay type: functional
Items are presented alongside their recorded -logMIC.
property_measured: -logMIC

• Clc1ccc2c(c1)SC(c1ccccc1)C1C(=N2)c2ccccc2C1c1ccccc1 (centres undefined) = 1.55
• Cc1ccc(C2Sc3ccccc3N=C3c4ccccc4C(c4ccccc4)C32)cc1 (centres undefined) = 0.92
• COc1ccc(C2Sc3cc(OC)ccc3N=C3c4ccccc4C(c4ccccc4)C32)cc1 (centres undefined) = 2.17
• Clc1ccc(C2Sc3cc(Cl)ccc3N=C3c4ccccc4C(c4ccccc4)C32)cc1 (centres undefined) = 1.28

----------
Tested on: Pseudomonas aeruginosa
Experiment: Antibacterial activity against Pseudomonas aeruginosa MTCC 7952 after 24 hrs by serial dilution method relative to 11,12-Diphenyl-11a,12-dihydro-11H-indeno[2,1-c][1,5]benzothiazepine
Assay type: functional
property_measured: Activity (%)

- Cc1ccc(C2Sc3cc(C)ccc3N=C3c4ccccc4C(c4ccccc4)C32)cc1 (stereo not drawn): -87.07
- Cc1ccc2c(c1)SC(c1ccccc1)C1C(=N2)c2ccccc2C1c1ccccc1 (stereo not drawn): 51.69
- COc1ccc2c(c1)SC(c1ccc(Cl)cc1)C1C(=N2)c2ccccc2C1c1ccccc1 (stereo not drawn): 88.85
- Clc1ccc(C2Sc3ccccc3N=C3c4ccccc4C(c4ccccc4)C32)cc1 (stereo not drawn): -84.32
- Clc1ccc(C2Sc3cc(Cl)ccc3N=C3c4ccccc4C(c4ccccc4)C32)cc1 (stereo not drawn): -70.92
- COc1ccc(C2Sc3cc(OC)ccc3N=C3c4ccccc4C(c4ccccc4)C32)cc1 (stereo not drawn): -74.15
- Cc1ccc(C2Sc3cc(Cl)ccc3N=C3c4ccccc4C(c4ccccc4)C32)cc1 (stereo not drawn): 55.41
- COc1ccc(C2Sc3cc(Cl)ccc3N=C3c4ccccc4C(c4ccccc4)C32)cc1 (stereo not drawn): 89.33
- COc1ccc2c(c1)SC(c1ccccc1)C1C(=N2)c2ccccc2C1c1ccccc1 (stereo not drawn): 6.94
- Cc1ccc2c(c1)SC(c1ccc(Cl)cc1)C1C(=N2)c2ccccc2C1c1ccccc1 (stereo not drawn): 55.41
- COc1ccc2c(c1)SC(c1ccc(C)cc1)C1C(=N2)c2ccccc2C1c1ccccc1 (stereo not drawn): 88.85
- COc1ccc(C2Sc3cc(C)ccc3N=C3c4ccccc4C(c4ccccc4)C32)cc1 (stereo not drawn): 9.85
- Clc1ccc2c(c1)SC(c1ccccc1)C1C(=N2)c2ccccc2C1c1ccccc1 (stereo not drawn): 7.91

----------
Test: Octanol-water partition coefficient, log P of the compound
Assay type: physicochemical
Listing: logP of selected compounds
property_measured: logP

• Cc1ccc2c(c1)SC(c1ccccc1)C1C(=N2)c2ccccc2C1c1ccccc1 (stereo unspecified) = 7.43
• Cc1ccc(C2Sc3ccccc3N=C3c4ccccc4C(c4ccccc4)C32)cc1 (stereo unspecified) = 7.43
• Clc1ccc(C2Sc3ccccc3N=C3c4ccccc4C(c4ccccc4)C32)cc1 (stereo unspecified) = 7.48
• Clc1ccc2c(c1)SC(c1ccccc1)C1C(=N2)c2ccccc2C1c1ccccc1 (stereo unspecified) = 7.48
• Cc1ccc2c(c1)SC(c1ccc(Cl)cc1)C1C(=N2)c2ccccc2C1c1ccccc1 (stereo unspecified) = 7.95
• COc1ccc(C2Sc3cc(OC)ccc3N=C3c4ccccc4C(c4ccccc4)C32)cc1 (stereo unspecified) = 6.46

Recorded values, source ChEMBL document CHEMBL2203136.
